# test_method_notes: Cytotoxicity against human H460 cells assessed as cell viability after 72 hrs by Alamar blue assay
# Format: functional, cell-based
# measurement_parameters: NCI-H460, 72 h
readout_name: IC50
Put down the number, then write its unit next to it.

What measured IC50 goes with COc1cc(O)c2c(=O)c(-c3cccc(Br)c3)c[nH]c2c1 ?
9.2 µM

====

# test_method_notes: Cytotoxicity against human H460 cells assessed as cell viability at 25 uM after 72 hrs by Alamar blue assay
# Type: functional
# measurement_parameters: NCI-H460, 72 h, read-out: Activity
Here, each record is paired with measured viability at 25 µM data.
# value in %; strip the unit string

Answered cases to consult:
COc1cc2c(c(OC)c1)C(=O)[C@@H](c1ccccc1)CN2    87.6
COc1cc(O)c2c(=O)c(-c3cccc(Br)c3)c[nH]c2c1    2
O=C1c2c(O)cc(O)cc2NCC1c1ccccc1 (stereo not drawn)    74.5
COc1cc(OC)c2c(=O)c(-c3ccc(Br)cc3)c[nH]c2c1    33.5
COc1cc(O)c2c(=O)c(-c3ccc(F)cc3)c[nH]c2c1    38.9

Turning now to a further molecule:
What measured viability at 25 µM goes with COc1cc(O)c2c(=O)c(-c3ccc(Br)cc3)c[nH]c2c1 ?
65.5

====

Here, each record is paired with measured viability at 25 µM data.
# test_method_notes: Cytotoxicity against human H460 cells assessed as cell viability at 25 uM after 72 hrs by Alamar blue assay
# Format: functional
# measurement_parameters: NCI-H460, 72 h, read-out: Activity
# value in %; strip the unit string

Answered cases to consult:
COc1ccc(C2CNc3cc(OC)cc(O)c3C2=O)cc1 (configuration not stated)    94.1
COc1cc(OC)c2c(=O)c(-c3ccc(C)cc3)c[nH]c2c1    53.8
COc1cc(OC)c2c(=O)c(-c3cccc(Br)c3)c[nH]c2c1    43.9
COc1cc(O)c2c(c1)NCC(c1ccccc1)C2=O (configuration not stated)    78
COc1cc(OC)c2c(=O)c(-c3ccc(F)cc3)c[nH]c2c1    86

What measured viability at 25 µM goes with COc1cc(O)c2c(=O)c(-c3ccc(C)cc3)c[nH]c2c1 ?
50.7

And what about the compound COc1ccc([C@H]2CNc3cc(OC)cc(OC)c3C2=O)cc1 ?
94.3
